Listed here are compounds together with their documented inhibition of growth at 10 µM.
Test: Cytotoxicity against human A498 cells assessed as growth inhibition at 10 uM after 48 hrs by SRB assay relative to control
Format: functional
Conditions: A498, 48 h, read-out: GI
Form entry: value (%) — number only.

Past entries and their recorded results:
COc1ccc(CN2c3ccccc3Sc3ccccc32)cc1F    100
COc1ccc(CN2c3ccccc3Sc3ccccc32)cc1O    24
COc1ccc(CN2c3ccccc3Oc3ccccc32)cc1F    46
COc1ccc(CN2c3ccccc3Sc3ccccc32)c(C(F)(F)F)c1    96
COc1ccc(CN2c3ccccc3CCc3ccccc32)cc1F    100

Next:
What value of measured inhibition of growth at 10 µM is listed for `COc1ccc(CN2c3ccccc3Sc3ccccc32)c(F)c1` ?
100

----------
Assay: Cytotoxicity against human OVCAR3 cells assessed as growth inhibition after 48 hrs by SRB assay
Assay type: functional
Settings: OVCAR-3, 48 h
// NB: equality with 300 nM counts as 0.0; only GI50 strictly below is 1.0

COc1ccc(CN2c3ccccc3CCc3ccccc32)cc1F    1.0

Does `COc1ccc(CN2c3ccccc3Sc3ccccc32)c(C(F)(F)F)c1` have GI50 strictly under 300 nM?
0.0

Does `COc1ccc(CN2c3ccccc3Sc3ccccc32)cc1F` have GI50 strictly under 300 nM?
1.0

Does `COc1ccc(C(=O)c2cc(OC)c(OC)c(OC)c2)cc1O` have GI50 strictly under 300 nM?
1.0

----------
Listed here are compounds together with their documented GI50.
Assay: Cytotoxicity against human UACC62 cells assessed as growth inhibition after 48 hrs by SRB assay
Assay type: functional
Conditions: UACC-62, 48 h
Form entry: value (nM) — number only.

COc1ccc(CN2c3ccccc3Sc3ccccc32)c(C(F)(F)F)c1    917

What value of measured GI50 is listed for `COc1ccc(CN2c3ccccc3Sc3ccccc32)cc1F` ?
499

What value of measured GI50 is listed for `COc1ccc(CN2c3ccccc3CCc3ccccc32)cc1F` ?
804

What value of measured GI50 is listed for `COc1ccc(CN2c3ccccc3Sc3ccccc32)cc1O` ?
682

----------
Experiment: Cytotoxicity against human MDA-MB-231 cells assessed as growth inhibition at 10 uM after 48 hrs by SRB assay relative to control
Format: functional
Settings: MDA-MB-231, 48 h, read-out: GI
QUANTITY NAME: inhibition of growth at 10 µM (%)
Form entry: value (%) — number only.

What value of measured inhibition of growth at 10 µM is listed for `COc1ccc(CN2c3ccccc3Sc3ccccc32)c(F)c1` ?
40

What value of measured inhibition of growth at 10 µM is listed for `COc1ccc(CN2c3ccccc3Oc3ccccc32)cc1F` ?
47

What value of measured inhibition of growth at 10 µM is listed for `COc1ccc(CN2c3ccccc3Sc3ccccc32)c(C(F)(F)F)c1` ?
59

What value of measured inhibition of growth at 10 µM is listed for `COc1ccc(CN2c3ccccc3Sc3ccccc32)cc1O` ?
59

What value of measured inhibition of growth at 10 µM is listed for `COc1ccc(CN2c3ccccc3CCc3ccccc32)cc1F` ?
83

What value of measured inhibition of growth at 10 µM is listed for `COc1ccc(CN2c3ccccc3Sc3ccccc32)cc1F` ?
76

What value of measured inhibition of growth at 10 µM is listed for `COc1ccc(CN2c3ccccc3Oc3ccccc32)cc1O` ?
43

These measurements were taken from ChEMBL document CHEMBL3862012.
